Tested target: GLP-1R (Rattus norvegicus, UniProt P32301)
Construct: stably transfected with the expression vector of GLP-1R gene
Sequence (P32301 22-463): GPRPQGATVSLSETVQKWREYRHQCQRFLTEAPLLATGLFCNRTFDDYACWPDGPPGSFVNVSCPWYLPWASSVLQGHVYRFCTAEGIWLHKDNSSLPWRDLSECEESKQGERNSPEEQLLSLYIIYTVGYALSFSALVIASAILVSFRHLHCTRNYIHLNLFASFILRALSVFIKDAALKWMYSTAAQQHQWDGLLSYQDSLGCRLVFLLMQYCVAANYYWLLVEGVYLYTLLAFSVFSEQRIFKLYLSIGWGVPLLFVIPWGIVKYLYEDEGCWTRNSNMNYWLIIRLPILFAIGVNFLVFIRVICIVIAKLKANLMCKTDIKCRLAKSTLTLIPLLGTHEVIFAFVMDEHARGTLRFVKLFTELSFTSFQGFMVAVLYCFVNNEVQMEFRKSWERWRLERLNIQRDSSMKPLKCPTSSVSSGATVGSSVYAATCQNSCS
Procedure summary: Ligand-binding activity, competition with 125I-labelled GLP-1 on HEK 293/GLP1R+Luc cells
Design: species or system human
Run conditions: competition with 125I-labelled GLP-1 (40 pM), 25 °C, 4 hours
Experimental: In order to determine the binding activity of the compound to the ligand, the cells which highly express GLP-1R are prepared, GLP-1 labelled with ^125I is used as the ligand, while adding into the candidate compound. When the candidate compound binds the ^125I-labelled GLP-1 competitively, the isotope labels on the cell membrane reduce. Accordingly, the affinity of the candidate compound to the ligand can be evaluated (J Mol Endocrinol. 2000 Vol.25:321-35; J Biomol Screen, 2000 Vol. 5:377-84). […]
Entries and their EC50

COc1cc(C=C2N=C(c3ccc(NC(=O)Nc4ccc(C5=NC(=Cc6ccc(OC(=O)c7cccs7)c(OC)c6)C(=O)O5)cc4)cc3)OC2=O)ccc1OC(=O)c1cccs1    > 100 µM
COc1cc(/C=C2/N=C(c3ccc(N)cc3)OC2=O)ccc1OC(=O)c1cccs1    > 100 µM
CCOc1cc(/C=C2/N=C(c3ccc(NC(C)=O)cc3)OC2=O)ccc1OC(=O)c1cccs1    31 µM

Then there is this compound:
Lookup: Missing value: EC50, GLP-1R (Rattus norvegicus, UniProt P32301), entry COc1cc(C=C2N=C(c3ccc([N+](=O)[O-])cc3)OC2=O)ccc1OC(=O)c1cccs1 . Fill in?
Found: > 100 µM

====

Tested target: GLP-1R (Rattus norvegicus, UniProt P32301)
Construct: stably transfected with the expression vector of GLP-1R gene
Procedure summary: Expression of the luciferase report gene in HEK 293/GLP1R+Luc cells
Assay type: cell-based, human
Run conditions: luciferase report gene, HEK 293/GLP1R+Luc cells, 6 hours
pEC50: −log10 of the molar value.
Quantity: pEC50

Recorded results for 5 molecules are shown here.
COc1cc(/C=C2/N=C(c3ccc(NC(=O)C4CC4)cc3)OC2=O)ccc1OC(=O)c1cccs1    5.17
COc1cc(/C=C2/N=C(c3ccc(NC(=O)C4CCC4)cc3)OC2=O)ccc1OC(=O)c1cccs1    5.48
COc1cc(/C=C2/N=C(c3ccc(NC(=O)C(O)c4ccccc4)cc3)OC2=O)ccc1OC(=O)c1cccs1 (stereo not shown)    5.28
COc1cc(/C=C2/N=C(c3ccc(NC(=O)c4ccccc4)cc3)OC2=O)ccc1OC(=O)c1cccs1    4.33
COc1cc(/C=C2/N=C(c3ccc(NC(=O)OC(C)(C)C)cc3)OC2=O)ccc1OC(=O)c1cccs1    5.34

a: CCOc1cc(/C=C2/N=C(c3ccc(NC(C)=O)cc3)OC2=O)ccc1OC(=O)c1cccs1
b: COc1cc(C=C2N=C(c3ccc(NC(=O)Nc4ccc(C5=NC(=Cc6ccc(OC(=O)c7cccs7)c(OC)c6)C(=O)O5)cc4)cc3)OC2=O)ccc1OC(=O)c1cccs1
Lookup: Thinking about recorded pEC50 values, which is higher, a or b ? Identify your selection by its label.
Found: a
(a: 4.89, b: 4.26)
